Origin of measurements: patent US11814447B2

Test Target: Human EphA2 (Ecto) (Human) (UniProt P29317)
Sequence (P29317 24-537): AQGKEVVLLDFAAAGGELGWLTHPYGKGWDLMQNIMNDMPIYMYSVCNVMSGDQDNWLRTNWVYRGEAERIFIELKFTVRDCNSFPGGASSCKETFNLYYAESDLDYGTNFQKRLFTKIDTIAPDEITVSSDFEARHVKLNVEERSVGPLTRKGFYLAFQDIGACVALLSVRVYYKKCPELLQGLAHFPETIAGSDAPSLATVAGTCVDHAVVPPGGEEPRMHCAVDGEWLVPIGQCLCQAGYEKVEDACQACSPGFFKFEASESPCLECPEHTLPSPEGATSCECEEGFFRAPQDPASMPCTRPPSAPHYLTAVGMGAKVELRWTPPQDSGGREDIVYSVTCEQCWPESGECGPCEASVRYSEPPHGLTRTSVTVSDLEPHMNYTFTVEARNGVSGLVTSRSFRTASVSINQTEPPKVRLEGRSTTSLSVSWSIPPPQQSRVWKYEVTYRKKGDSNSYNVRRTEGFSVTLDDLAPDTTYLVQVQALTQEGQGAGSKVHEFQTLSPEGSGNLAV
Assay Text: FP competition, tracer Compound 18
Starred links: 1 amine or outer side, 2 acyl side, 3 side chain; linkers in the order of their positions; H or OH if unused. Positions of bridges follow the written chain, without caps; N, C: chain ends. Non-standard residues stand in square brackets, D forms with d. No end group written: not given here. 1Nal = N[C@@H](Cc1cccc2ccccc12)C(=O)O; TBMB = c1c(C[*:1])cc(C[*:3])cc1C[*:2]; hArg = N=C(N)NCCCC[C@H](N)C(=O)O; Tle = CC(C)(C)[C@H](N)C(=O)O; Aib = CC(C)(N)C(=O)O; βAla = NCCC(=O)O; Sar = CNCC(=O)O
Reported Property: pKi
A value of pKi is the negative decimal logarithm of a concentration given in moles per litre.

>>> experimental_value("[βAla][Sar][Sar][Sar][Sar][Sar][Sar][Sar][Sar][Sar][Sar]H[dD]VPCPWG[Aib]F[1Nal]CP[Tle]N[hArg]P[dD]C (linker 16-23-30 via TBMB) [Bicycle Compound 269]")
8.95

Turning now to a further binder:
Q: Which pKi value is on record for [βAla][Sar][Sar][Sar][Sar][Sar][Sar][Sar][Sar][Sar][Sar]H[dD]VPC[dA][1Nal]G[Aib]F[1Nal]CP[Tle]N[hArg]P[dD]C (linker 16-23-30 via TBMB) [Bicycle Compound 248] ?
A: 7.55
